# Target Desc: Y641N EZH2 (Homo sapiens, UniProt Q15910, Y641N)
# Sequence (Q15910 whole entry Y641N): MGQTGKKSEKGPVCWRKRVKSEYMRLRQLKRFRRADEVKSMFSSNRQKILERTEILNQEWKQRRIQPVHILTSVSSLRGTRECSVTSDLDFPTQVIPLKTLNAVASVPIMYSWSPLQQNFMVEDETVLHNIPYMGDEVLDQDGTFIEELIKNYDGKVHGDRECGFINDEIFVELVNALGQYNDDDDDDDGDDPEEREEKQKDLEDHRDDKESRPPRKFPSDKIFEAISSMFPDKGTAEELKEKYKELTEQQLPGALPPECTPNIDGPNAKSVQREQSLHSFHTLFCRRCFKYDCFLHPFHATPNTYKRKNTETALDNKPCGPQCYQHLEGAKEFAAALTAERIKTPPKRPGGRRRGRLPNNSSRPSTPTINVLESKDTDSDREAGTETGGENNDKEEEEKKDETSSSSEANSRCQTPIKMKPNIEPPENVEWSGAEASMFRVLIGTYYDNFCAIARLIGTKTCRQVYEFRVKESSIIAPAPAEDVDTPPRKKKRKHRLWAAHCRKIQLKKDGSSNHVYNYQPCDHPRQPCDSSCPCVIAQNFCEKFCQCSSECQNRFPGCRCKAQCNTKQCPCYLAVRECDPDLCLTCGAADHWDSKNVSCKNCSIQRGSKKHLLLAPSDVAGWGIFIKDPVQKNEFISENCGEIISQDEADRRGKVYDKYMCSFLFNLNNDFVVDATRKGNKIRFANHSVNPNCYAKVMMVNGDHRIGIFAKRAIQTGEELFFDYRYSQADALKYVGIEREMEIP
# Sequence (O75530 whole entry partner): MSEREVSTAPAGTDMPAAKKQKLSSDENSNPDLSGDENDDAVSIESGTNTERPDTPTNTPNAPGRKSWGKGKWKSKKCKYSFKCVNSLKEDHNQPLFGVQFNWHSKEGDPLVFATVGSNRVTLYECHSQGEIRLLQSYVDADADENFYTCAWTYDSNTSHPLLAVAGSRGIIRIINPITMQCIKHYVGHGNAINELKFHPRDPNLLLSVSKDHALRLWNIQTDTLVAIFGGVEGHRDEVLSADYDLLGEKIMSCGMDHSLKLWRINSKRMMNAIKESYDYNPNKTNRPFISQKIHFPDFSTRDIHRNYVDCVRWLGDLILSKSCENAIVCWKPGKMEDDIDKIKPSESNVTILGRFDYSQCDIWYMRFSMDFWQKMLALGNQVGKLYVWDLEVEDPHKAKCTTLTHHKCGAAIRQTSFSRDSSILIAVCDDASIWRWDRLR
# Sequence (Q15022 whole entry partner): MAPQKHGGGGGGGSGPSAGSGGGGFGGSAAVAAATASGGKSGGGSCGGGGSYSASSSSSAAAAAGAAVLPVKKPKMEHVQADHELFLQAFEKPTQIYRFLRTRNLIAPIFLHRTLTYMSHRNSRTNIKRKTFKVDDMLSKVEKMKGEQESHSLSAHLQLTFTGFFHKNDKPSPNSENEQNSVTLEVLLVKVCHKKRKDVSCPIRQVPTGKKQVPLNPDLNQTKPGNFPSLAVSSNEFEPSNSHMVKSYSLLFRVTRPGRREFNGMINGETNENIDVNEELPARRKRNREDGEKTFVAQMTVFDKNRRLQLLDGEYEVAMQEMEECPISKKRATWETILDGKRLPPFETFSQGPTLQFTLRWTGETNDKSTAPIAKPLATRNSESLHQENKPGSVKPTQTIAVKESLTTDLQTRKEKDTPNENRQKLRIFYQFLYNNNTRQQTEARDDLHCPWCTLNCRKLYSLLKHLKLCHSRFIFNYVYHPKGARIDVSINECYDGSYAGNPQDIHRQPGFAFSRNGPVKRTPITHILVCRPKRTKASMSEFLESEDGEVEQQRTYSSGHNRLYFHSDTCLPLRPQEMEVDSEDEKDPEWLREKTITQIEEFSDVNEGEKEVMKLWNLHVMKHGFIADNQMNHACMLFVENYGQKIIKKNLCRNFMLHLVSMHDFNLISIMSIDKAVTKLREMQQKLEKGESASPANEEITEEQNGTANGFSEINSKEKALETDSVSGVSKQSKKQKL
# Experiment Description: Y641N EZH2 assay (as the EZH2 assay, with H3K27Me2 oligonucleosomes as substrate)
# Condition Label: Y641N EZH2 mutant, reconstituted H3K27Me2 oligonucleosomes as substrate; top concentration 80 μM
Measured Endpoint: IC50

Worked examples follow.
CCCC(C)c1ccc(C(=O)NCc2c(C)cc(C)[nH]c2=O)cc1 (stereo not drawn)
1 to 10 µM
Cc1cc(C)c(CNC(=O)c2ccc(C(C)C)c(Oc3ccccc3)c2)c(=O)[nH]1
> 80 µM
CC(=O)NC(C)c1ccc(C(=O)NCc2c(C)cc(C)[nH]c2=O)cc1 (stereo not drawn)
> 80 µM
Cc1cc(C)c(CNC(=O)c2ccn(C(C)C)c(=O)c2)c(=O)[nH]1
> 80 µM
CCOC(C)c1ccc(C(=O)NCc2c(C)cc(C)[nH]c2=O)cc1 (stereo not drawn)
1 to 10 µM
Cc1cc(C)c(CNC(=O)c2ccc(COC(C)C)cc2)c(=O)[nH]1
> 10 µM

Endpoint output: IC50 of Cc1cc(C)c(CNC(=O)c2ccc(C(C)OCC(C)C)cc2)c(=O)[nH]1 (stereo not drawn) . Value?
1 to 10 µM

Would you mind doing Cc1cc(C)c(CNC(=O)c2ccc(C(C)C)cc2C)c(=O)[nH]1 as well?
1 to 10 µM

// query: COC(C)c1ccc(C(=O)NCc2c(C)cc(C)[nH]c2=O)cc1 (stereo not drawn)
1 to 10 µM

Cool, now Cc1cc(C)c(CNC(=O)c2ccc(C(C)C(C)C)cc2)c(=O)[nH]1 (stereo not drawn)
1 to 10 µM

Let us now turn to Cc1cc(C)c(CNC(=O)c2ccc(C(C)OC(C)C)cc2)c(=O)[nH]1 (stereo not drawn)
1 to 10 µM

And the next one, Cc1cc(C)c(CNC(=O)c2ccc(C(C)C)cc2Cl)c(=O)[nH]1 ?
1 to 10 µM

What about Cc1cc(C)c(CNC(=O)c2ccc3c(c2)OCC3C)c(=O)[nH]1 (stereo not drawn) ?
> 80 µM

Try this compound next: COC(C)(C)c1ccc(C(=O)NCc2c(C)cc(C)[nH]c2=O)cc1
> 10 µM

What do you have for Cc1cc(C)c(CNC(=O)c2ccc(C(C)(C)O)cc2)c(=O)[nH]1 ?
> 80 µM

----------
Let's go through some IC50 measurements on EZH2 (Homo sapiens, UniProt Q15910) together.
Sequence (Q15910 whole entry): as the sequence (Q15910 whole entry Y641N) above, with N641Y counted along it
Sequence (O75530 whole entry partner): as the sequence (O75530 whole entry partner) above
Sequence (Q15022 whole entry partner): as the sequence (Q15022 whole entry partner) above

Cc1cc(C)c(CNC(=O)c2ccc(C(C)OCC(C)C)cc2)c(=O)[nH]1 (centres unmarked) [Compound I-8]
< 1 µM
Cc1cc(C)c(CNC(=O)c2ccc3c(c2)OCC3C)c(=O)[nH]1 (centres unmarked) [Compound I-12]
1 to 10 µM
Cc1cc(C)c(CNC(=O)c2ccc(C(C)OC(C)C)cc2)c(=O)[nH]1 (centres unmarked) [Compound I-5]
< 1 µM
COC(C)c1ccc(C(=O)NCc2c(C)cc(C)[nH]c2=O)cc1 (centres unmarked) [Compound I-4]
< 1 µM

Record request: IC50 value, item Cc1cc(C)c(CNC(=O)c2ccc(C(C)C)cc2Cl)c(=O)[nH]1 [Compound I-2]
< 1 µM

And what about the molecule CCCC(C)c1ccc(C(=O)NCc2c(C)cc(C)[nH]c2=O)cc1 (centres unmarked) [Compound I-10] ?
< 1 µM

Another molecule to check: COC(C)(C)c1ccc(C(=O)NCc2c(C)cc(C)[nH]c2=O)cc1 [Compound I-3]
1 to 10 µM

Moving on to the next molecule: CCOC(C)c1ccc(C(=O)NCc2c(C)cc(C)[nH]c2=O)cc1 (centres unmarked) [Compound I-7]
< 1 µM
